Tested on: LXFL 529 NSCLC
Experiment: NCI tumour cell line growth inhibition, 48 h
Quantity kind: TGI

Noted for `CC(=O)Oc1cc2c(=O)oc3c(OC(C)=O)c(OC(C)=O)c(OC(C)=O)c4c(=O)oc(c1OC(C)=O)c2c34` : its TGI reads > 100 µM

Noted for COC1CCC(OS(C)(=O)=O)CO1 (stereo unspecified) : its TGI reads > 100 µM

Noted for CCC12CC[C@H](C#N)N3CCc4c(n(c5ccccc45)C(=O)C1)C32 (stereo partly specified) : its TGI reads 33.7 µM

Noted for `N#Cc1c(C(N)=O)ncn1Cc1ccccc1` : its TGI reads > 100 µM

Noted for `CCOC(=O)C(=O)Nc1ccc([N+](=O)[O-])cc1C#N` : its TGI reads > 100 µM

Noted for `O=C1C(Br)=C(c2ccccc2)C(c2ccccc2)=C1c1ccccc1` : its TGI reads 2.84 µM

Noted for CC1CC(C)C(=O)C(C(=O)CC2CC(=O)NC2=O)C1 (stereo unspecified) : its TGI reads > 100 µM

Noted for `NC(=S)Nc1nnc(-c2ccc(-c3nnc(NC(N)=S)o3)cc2)o1` : its TGI reads > 100 µM

Noted for `CCC[CH2][Sn]([CH2]CCC)([O]C(=O)c1cccc(F)c1F)[O][Sn]([CH2]CCC)([CH2]CCC)[O]C(=O)c1cccc(F)c1F` : its TGI reads 0.157 µM

Noted for Cc1ccc(NC(=O)/C(=N/NC(=O)CC#N)C2C(=O)N(c3ccccc3)N=C2N)cc1C (stereo unspecified) : its TGI reads > 100 µM

Noted for `O=C(Nc1ccc(N=Nc2ccccc2)cc1)Sc1ccccc1C(=O)O` : its TGI reads > 100 µM

Noted for N#CC(c1ccc(Cl)cc1)c1cccc(Cl)n1 (stereo unspecified) : its TGI reads > 100 µM

Noted for `N=c1oc2cc(O)c(O)cc2cc1C(N)=O` : its TGI reads > 100 µM

Noted for `CN(C)c1cccc(-c2cc(=O)c3cc4c(cc3[nH]2)OCO4)c1` : its TGI reads > 48.4 µM

Noted for `O=C(/C=C(\O)C(=O)O)/C=C(\O)c1ccccc1Cl` : its TGI reads > 100 µM

Noted for `c1ccc2c(NCCCCCCCCNc3cccc4ccccc34)cccc2c1` : its TGI reads 38.1 µM

----------
System: KM12 colon
Test: NCI tumour cell line growth inhibition, 48 h; in the data active = GI50 below about 0.43 µM; inactive = the rest
Pick one: active, inactive

Recorded test call requested for CC(=O)O[C@H]1C(=O)[C@@]2(C)[C@H]([C@H](OC(=O)c3ccccc3)[C@]3(O)C[C@H](OC(=O)[C@H](OC(=O)CCC(=O)OC4CCC(S/N=C(N)/N=C(\N)N(C)C)CC4)[C@@H](NC(=O)c4ccccc4)c4ccccc4)C(C)=C1C3(C)C)[C@]1(OC(C)=O)CO[C@@H]1C[C@@H]2O (some centres not stated) active

Recorded test call requested for `COc1cc(N)ccc1Nc1c2ccccc2nc2ccccc12` inactive

Recorded test call requested for `C/C(=C\c1ccn(-c2ccc(N)cc2C(F)(F)F)n1)[C@@H]1C[C@@H]2O[C@]2(C)CCC[C@H](C)[C@H](O)[C@@H](C)C(=O)C(C)(C)[C@@H](O)CC(=O)O1` active

Recorded test call requested for `CNC(=O)c1ccc(Nc2nc(OC3CCCC3)c3c(-c4ccc5nc(C)oc5c4)c[nH]c3n2)c(OC)c1` inactive

Recorded test call requested for `O=C(CSc1nc2sc3c(c2c(=O)n1-c1ccccc1)CCCCC3)N/N=C/c1ccc(F)cc1` inactive

Recorded test call requested for `O=C(c1cccs1)c1c(C(F)(F)F)n([O-])c2cc(C(F)(F)F)ccc2[n+]1=O` active

Recorded test call requested for `CCSc1nc(=S)[nH]c2[nH]ncc12` inactive
